Origin of measurements: paper PMC6419571

- Test system: P-gp (MDR1)
- measurement.description: Bi-directional permeability in MDR1-MDCK cell line
- Type: in vitro ADME
- measurement.parameters: dog; MDR1-MDCK cell line, bi-directional; read-out: MDCK asymmetry ratio (efflux ratio)
assay.endpoint: efflux ratio
No unit in the answer, only the number.

Entry Cc1ccc(C)c2oc(-c3nc(-c4ccc(C(=O)O)cc4)no3)cc12 has what efflux ratio?
0.8

====

- assayed.target: UniProtKB P08684
- Sequence (P08684 whole entry): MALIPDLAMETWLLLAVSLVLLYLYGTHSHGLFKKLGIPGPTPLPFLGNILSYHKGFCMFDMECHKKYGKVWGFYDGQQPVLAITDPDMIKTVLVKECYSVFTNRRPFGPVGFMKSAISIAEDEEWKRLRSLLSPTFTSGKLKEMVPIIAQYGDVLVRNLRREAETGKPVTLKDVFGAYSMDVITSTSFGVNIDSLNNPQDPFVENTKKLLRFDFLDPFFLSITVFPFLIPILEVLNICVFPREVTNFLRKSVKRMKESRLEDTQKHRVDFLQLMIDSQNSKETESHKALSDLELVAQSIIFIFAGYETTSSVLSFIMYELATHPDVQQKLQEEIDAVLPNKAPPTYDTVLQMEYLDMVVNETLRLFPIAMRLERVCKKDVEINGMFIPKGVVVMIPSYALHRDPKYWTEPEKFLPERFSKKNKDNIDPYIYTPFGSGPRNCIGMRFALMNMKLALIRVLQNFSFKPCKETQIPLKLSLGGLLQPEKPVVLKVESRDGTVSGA
- measurement.description: Cyp450 inhibition, 3A4
- Type: in vitro ADME
- measurement.parameters: isoform 3A4
pIC50: −log10 of the molar value.
assay.endpoint: pIC50

// query pIC50 value for entry Cc1ccc(C)c2oc(-c3nc(-c4ccc(C(=O)O)cc4)no3)cc12 [Compound 10]
< 4.60

====

- assayed.target: RARα (Mus musculus)
- Construct: expressed in transfected cells; host or cells: COS-7
- Sequence (P11416 183-417 limits assumed): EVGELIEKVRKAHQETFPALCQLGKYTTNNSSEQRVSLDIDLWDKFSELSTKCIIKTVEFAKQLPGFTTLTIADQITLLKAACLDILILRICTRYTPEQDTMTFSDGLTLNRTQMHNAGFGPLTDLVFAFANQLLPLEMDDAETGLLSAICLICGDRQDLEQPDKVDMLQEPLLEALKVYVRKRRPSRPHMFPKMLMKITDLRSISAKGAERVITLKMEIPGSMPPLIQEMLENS
- measurement.description: RAR alpha transactivation assay (gal4-RAR LBD fusion, luciferase reporter, COS-7 cells)
- Assay type: cell-based
- measurement.parameters: mouse RAR ligand binding domain; usually three experiments; read-out: α EC50
- Protocol: Compounds were tested in transactivation assays at the RAR α, β and γ receptors. Transactivation assays for RAR alpha, beta and gamma receptors: […] Briefly, on day one, 96 well plates were seeded with 8000 cells per well then left to recover overnight. […] Finally, on day four, the cells were lysed and their luciferase substrate was provided by the BrightGlo reagent (Promega), the plates were then read on the MicroBeta TriLux (Perkin Elmer). […]
assay.endpoint: EC50 (nM)
Field format: number, assumed nM, no unit text.

Write down the reported EC50 of CCOc1c(Cl)cc(-c2nc(-c3ccc(C(=O)O)cc3)no2)cc1Cl , test system: RARα (Mus musculus).
18

Check Cc1ccc(C)c2sc(-c3nc(-c4ccc(C(=O)O)cc4)no3)cc12 too.
30

Another compound to check: CC1(C)CCC(C)(C)c2cc(-c3nc(-c4ccc(C(=O)O)cc4)no3)ccc21
18

Same question, Cc1ccc(C)c2oc(-c3nc(-c4ccc(C(=O)O)cc4)no3)cc12 this time
26

Further, for O=C(O)c1ccc(-c2noc(-c3cc4c(C(F)(F)F)ccc(F)c4o3)n2)cc1 ?
19

Do the same for CCOc1c(Cl)cc(-c2noc(-c3ccc(C(=O)O)cc3)n2)cc1Cl please
31

Entry to check: CCOc1c(Cl)cc(-c2csc(-c3ccc(C(=O)O)cc3)n2)cc1Cl
240

Proceed to COc1ccc(-c2ccc3cc(C(=O)O)ccc3c2)cc1C1(C)CCCCC1 [CD 2019, reference compound]
9.2

And for Cc1cc(-c2noc(-c3cc4c(C)ccc(C)c4o3)n2)ccc1C(=O)O ?
89

Check CC(C)(C)c1cc(-c2nc(-c3ccc(C(=O)O)cc3)no2)cc(C(C)(C)C)c1 too.
4

Also CCOc1c(Cl)cc(-c2c[nH]c(-c3ccc(C(=O)O)cc3)n2)cc1Cl , if possible.
594

Same lookup for CCOc1c(Cl)cc(-c2nnc(-c3ccc(C(=O)O)cc3)o2)cc1Cl , please.
58

Similarly, CCOc1c(Cl)cc(C(=O)Nc2ccc(C(=O)O)cc2)cc1Cl ?
46

Can you check Cc1ccc(C)c2oc(-c3nc(-c4ccc(C(=O)O)cc4)no3)nc12 next?
114

What would you report for CCCCOCCOc1nc(-c2ccc(C(=O)O)c(F)c2)sc1C [AC 261066, reference compound] ?
70

Likewise for CCOc1c(Cl)cc(-c2cnc(-c3ccc(C(=O)O)cc3)o2)cc1Cl ?
60

Next compound up: Cc1ccc(C)c2oc(-c3nc(-c4ccc(C(=O)O)cc4F)no3)cc12
61

Record: Cc1cc(C(=O)O)ccc1-c1noc(-c2cc3c(C)ccc(C)c3o2)n1
600

Same for Cc1ccc(C)c2oc(-c3nc(-c4ccc(C(=O)O)c(F)c4)no3)cc12
16

====

- assayed.target: Cyp450 2C19 (Homo sapiens)
- Sequence (P33261 whole entry): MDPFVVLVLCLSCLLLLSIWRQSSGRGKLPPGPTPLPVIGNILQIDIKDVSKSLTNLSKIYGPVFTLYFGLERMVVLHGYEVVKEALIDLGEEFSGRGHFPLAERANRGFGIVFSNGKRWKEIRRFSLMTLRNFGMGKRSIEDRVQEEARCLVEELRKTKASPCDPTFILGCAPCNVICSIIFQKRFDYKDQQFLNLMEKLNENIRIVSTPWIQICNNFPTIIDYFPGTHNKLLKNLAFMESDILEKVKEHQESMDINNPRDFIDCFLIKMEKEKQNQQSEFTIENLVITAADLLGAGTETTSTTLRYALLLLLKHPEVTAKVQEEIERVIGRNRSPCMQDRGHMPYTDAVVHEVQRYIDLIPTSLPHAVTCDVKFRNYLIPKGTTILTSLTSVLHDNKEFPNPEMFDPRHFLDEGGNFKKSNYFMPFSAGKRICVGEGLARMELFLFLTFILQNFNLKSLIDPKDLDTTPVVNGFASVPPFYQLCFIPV
- measurement.description: Cyp450 inhibition, 2C19
- Type: in vitro ADME
- measurement.parameters: isoform 2C19
pIC50: −log10 of the molar value.
assay.endpoint: pIC50

Please provide the recorded pIC50 for Cc1ccc(C)c2oc(-c3nc(-c4ccc(C(=O)O)cc4)no3)cc12 , tested on Cyp450 2C19 (Homo sapiens).
< 4.60

====

- measurement.description: Bi-directional permeability in MDR1-MDCK cell line
- Assay type: in vitro ADME
- measurement.parameters: dog; MDR1-MDCK cell line
assay.endpoint: Papp

Returns the measured Papp for the input molecule. Input: Cc1ccc(C)c2oc(-c3nc(-c4ccc(C(=O)O)cc4)no3)cc12
28 ×10⁻⁶ cm/s

====

- assayed.target: Cyp450 1A2 (Homo sapiens)
- Sequence (P05177 whole entry): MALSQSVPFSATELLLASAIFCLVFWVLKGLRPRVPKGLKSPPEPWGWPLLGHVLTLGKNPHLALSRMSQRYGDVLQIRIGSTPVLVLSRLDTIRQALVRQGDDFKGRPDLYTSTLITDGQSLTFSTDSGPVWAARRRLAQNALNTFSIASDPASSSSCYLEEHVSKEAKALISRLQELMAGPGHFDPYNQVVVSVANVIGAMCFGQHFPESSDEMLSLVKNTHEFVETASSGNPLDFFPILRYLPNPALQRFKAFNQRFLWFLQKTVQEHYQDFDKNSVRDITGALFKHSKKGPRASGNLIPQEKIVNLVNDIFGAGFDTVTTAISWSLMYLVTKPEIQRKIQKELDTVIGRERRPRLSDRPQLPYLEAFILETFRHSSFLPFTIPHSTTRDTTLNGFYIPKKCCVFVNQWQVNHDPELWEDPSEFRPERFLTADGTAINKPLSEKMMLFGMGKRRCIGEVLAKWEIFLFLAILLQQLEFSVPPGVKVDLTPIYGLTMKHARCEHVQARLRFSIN
- measurement.description: Cyp450 inhibition, 1A2
- Format: in vitro ADME
- measurement.parameters: isoform 1A2
pIC50: −log10 of the molar value.
assay.endpoint: pIC50

Reported pIC50 for Cyp450 1A2 (Homo sapiens), given Cc1ccc(C)c2oc(-c3nc(-c4ccc(C(=O)O)cc4)no3)cc12 ?
< 4.60

====

- measurement.description: Pharmacokinetics in dog
- Assay type: in vivo
- measurement.parameters: blood, iv dose 0.5 mg/kg
assay.endpoint: clearance
Could you give the number and then its unit, please?

# lookup: clearance of Cc1ccc(C)c2oc(-c3nc(-c4ccc(C(=O)O)cc4)no3)cc12
1.1 mL/min/kg

====

- assayed.target: Cyp450 2D6 (Homo sapiens)
- Sequence (P10635 whole entry): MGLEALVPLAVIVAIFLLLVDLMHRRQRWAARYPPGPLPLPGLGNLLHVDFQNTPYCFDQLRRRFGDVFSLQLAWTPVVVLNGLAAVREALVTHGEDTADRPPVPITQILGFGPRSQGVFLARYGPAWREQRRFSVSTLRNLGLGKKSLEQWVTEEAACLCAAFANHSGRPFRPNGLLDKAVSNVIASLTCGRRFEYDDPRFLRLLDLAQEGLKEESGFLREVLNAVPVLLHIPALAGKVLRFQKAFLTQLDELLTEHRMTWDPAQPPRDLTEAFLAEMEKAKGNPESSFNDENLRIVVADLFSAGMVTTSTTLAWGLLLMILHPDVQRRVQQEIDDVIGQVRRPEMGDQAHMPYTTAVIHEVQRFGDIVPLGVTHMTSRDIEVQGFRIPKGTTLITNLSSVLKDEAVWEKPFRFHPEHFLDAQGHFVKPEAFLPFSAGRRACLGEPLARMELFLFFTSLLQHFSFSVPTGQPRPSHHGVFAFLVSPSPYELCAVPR
- measurement.description: Cyp450 inhibition, 2D6
- Assay type: in vitro ADME
- measurement.parameters: isoform 2D6
assay.endpoint: IC50

Entry Cc1ccc(C)c2oc(-c3nc(-c4ccc(C(=O)O)cc4)no3)cc12 has what IC50?
> 25 µM

====

- measurement.description: Solubility
- Type: physicochemical
- measurement.parameters: pH 7.4, as the amorphous sodium salt
assay.endpoint: solubility

Look at this compound and give its reported solubility. Cc1ccc(C)c2oc(-c3nc(-c4ccc(C(=O)O)cc4)no3)cc12
> 100 µM

====

- assayed.target: RARβ (Mus musculus)
- Construct: expressed in transfected cells; host or cells: COS-7
- Sequence (P22605 210-444 limits assumed): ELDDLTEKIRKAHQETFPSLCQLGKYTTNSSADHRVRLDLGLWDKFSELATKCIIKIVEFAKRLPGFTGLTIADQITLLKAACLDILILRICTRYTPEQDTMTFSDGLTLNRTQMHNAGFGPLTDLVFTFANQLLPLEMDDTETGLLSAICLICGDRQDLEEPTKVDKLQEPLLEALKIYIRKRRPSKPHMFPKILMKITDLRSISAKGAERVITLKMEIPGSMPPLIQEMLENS
- measurement.description: RAR beta transactivation assay (gal4-RAR LBD fusion, luciferase reporter, COS-7 cells)
- Type: cell-based
- measurement.parameters: EC50 ratio of α to β, mouse; Tables 1 and 4
# Fold selectivity for β over α >= 2 gives fulfilled, anything below gives not fulfilled

Fold selectivity for β over α >= 2 for CCOc1c(Cl)cc(-c2cnc(-c3ccc(C(=O)O)cc3)o2)cc1Cl ?
fulfilled

Another molecule to look at: CCOc1c(Cl)cc(-c2c[nH]c(-c3ccc(C(=O)O)cc3)n2)cc1Cl
not fulfilled

Also need CCOc1c(Cl)cc(-c2nnc(-c3ccc(C(=O)O)cc3)o2)cc1Cl , thanks.
not fulfilled

Same read-out for CCOc1c(Cl)cc(-c2noc(-c3ccc(C(=O)O)cc3)n2)cc1Cl ?
not fulfilled

====

- assayed.target: UniProt:P18911
- Sequence (P18911 185-419 limits assumed): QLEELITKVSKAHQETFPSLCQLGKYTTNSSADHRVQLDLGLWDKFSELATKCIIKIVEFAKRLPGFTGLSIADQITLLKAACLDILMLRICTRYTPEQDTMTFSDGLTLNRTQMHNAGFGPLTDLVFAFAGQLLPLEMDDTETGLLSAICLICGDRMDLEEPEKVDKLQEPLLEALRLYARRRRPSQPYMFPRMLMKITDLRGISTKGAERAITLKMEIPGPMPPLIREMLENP
- measurement.description: RAR gamma transactivation assay (gal4-RAR LBD fusion, luciferase reporter, COS-7 cells)
- measurement.parameters: mouse RAR ligand binding domain; Tables 1 and 4; read-out: γ EC50
assay.endpoint: EC50 (µM)
Note: unit µM is implicit; provide only the numeric part.

Recorded EC50 for CCCCOCCOc1nc(-c2ccc(C(=O)O)c(F)c2)sc1C [AC 261066, reference compound] with UniProt:P18911, please?
0.033

Moving on to Cc1ccc(C)c2oc(-c3nc(-c4ccc(C(=O)O)cc4)no3)cc12
0.011

Thanks! And COc1ccc(-c2ccc3cc(C(=O)O)ccc3c2)cc1C1(C)CCCCC1 [CD 2019, reference compound] ?
0.0016

Would you kindly repeat that for CCOc1c(Cl)cc(-c2nc(-c3ccc(C(=O)O)cc3)no2)cc1Cl ?
0.028

====

What pEC50 was measured for each of the following?
- assayed.target: RARβ (Mus musculus)
- measurement.description: RAR beta transactivation assay (gal4-RAR LBD fusion, luciferase reporter, COS-7 cells)
- measurement.parameters: mouse RAR ligand binding domain; usually three experiments; read-out: β EC50
- Method: Compounds were tested in transactivation assays at the RAR α, β and γ receptors. Transactivation assays for RAR alpha, beta and gamma receptors: […] Briefly, on day one, 96 well plates were seeded with 8000 cells per well then left to recover overnight. […] Finally, on day four, the cells were lysed and their luciferase substrate was provided by the BrightGlo reagent (Promega), the plates were then read on the MicroBeta TriLux (Perkin Elmer). […]
When answering, recall that pEC50 equals minus log10 of the concentration in mol/L, and write that number alone.

Which pEC50 is listed for CCOc1c(Cl)cc(-c2nc(-c3ccc(C(=O)O)cc3)no2)cc1Cl ?
8.82

Consider next the molecule Cc1ccc(C)c2oc(-c3nc(-c4ccc(C(=O)O)cc4)no3)cc12 in the same way.
8.72

# repeat for CC(C)(C)c1cc(-c2nc(-c3ccc(C(=O)O)cc3)no2)cc(C(C)(C)C)c1
8.85

Another molecule to look at: CC1(C)CCC(C)(C)c2cc(-c3nc(-c4ccc(C(=O)O)cc4)no3)ccc21
5.38

Now try Cc1ccc(C)c2oc(-c3nc(-c4ccc(C(=O)O)cc4)no3)nc12 .
7.96

Likewise for Cc1cc(-c2noc(-c3cc4c(C)ccc(C)c4o3)n2)ccc1C(=O)O ?
7.85

Now try Cc1ccc(C)c2oc(-c3nc(-c4ccc(C(=O)O)cc4F)no3)cc12 .
7.96

Try Cc1ccc(C)c2oc(-c3nc(-c4ccc(C(=O)O)c(F)c4)no3)cc12 next.
8.66

Query CCOc1c(Cl)cc(-c2noc(-c3ccc(C(=O)O)cc3)n2)cc1Cl next
6.96

Try this molecule next: Cc1ccc(C)c2sc(-c3nc(-c4ccc(C(=O)O)cc4)no3)cc12
8.47

Would you mind doing CCOc1c(Cl)cc(-c2cnc(-c3ccc(C(=O)O)cc3)o2)cc1Cl as well?
7.55

// same read-out, input: CCCCOCCOc1nc(-c2ccc(C(=O)O)c(F)c2)sc1C [AC 261066, reference compound]
7.92

Similarly, CCOc1c(Cl)cc(-c2nnc(-c3ccc(C(=O)O)cc3)o2)cc1Cl ?
7.20

Now give it for CCOc1c(Cl)cc(-c2csc(-c3ccc(C(=O)O)cc3)n2)cc1Cl too.
6.92

Similarly, O=C(O)c1ccc(-c2noc(-c3cc4c(C(F)(F)F)ccc(F)c4o3)n2)cc1 ?
8.60

Would you mind doing COc1ccc(-c2ccc3cc(C(=O)O)ccc3c2)cc1C1(C)CCCCC1 [CD 2019, reference compound] as well?
9.08

Same lookup for CCOc1c(Cl)cc(-c2c[nH]c(-c3ccc(C(=O)O)cc3)n2)cc1Cl , please.
6.37

Try CCOc1c(Cl)cc(C(=O)Nc2ccc(C(=O)O)cc2)cc1Cl next.
5.91

Note, next up: Cc1cc(C(=O)O)ccc1-c1noc(-c2cc3c(C)ccc(C)c3o2)n1
7.33
